System: Alpha-2 adrenergic receptor (Rattus norvegicus)
Assay: In vitro presynaptic antagonist potency at alpha-2 adrenergic receptor in rat or mouse vas deferens; IA means compound is inactive.
Activity calls are given as the source filed them. The rule behind the calls is not given here.
valueType: Antagonist potency

Examples with answers:
compound: Nc1nc(N)nc(C2COc3ccccc3O2)n1 (stereo not given)
Antagonist potency: inactive
//
compound: COCC/N=C(\N)C1COc2ccccc2O1 (stereo not given)
Antagonist potency: inactive
//
compound: c1ccc2c(c1)OCC(C1=NCCS1)O2 (stereo not given)
Antagonist potency: inactive
//
compound: c1ccc2c(c1)OCC(c1nn[nH]n1)O2 (stereo not given)
Antagonist potency: inactive

Look up Antagonist potency with Alpha-2 adrenergic receptor (Rattus norvegicus) for this compound: N=C(NN1CCOCC1)C1COc2ccccc2O1 (stereo not given)
inactive

====

Molecular target: Adrenergic receptor alpha-2 (Rattus norvegicus) (UniProt P22086+P19328+P22909)
Assay: In vitro presynaptic antagonist potency at alpha-2 adrenergic receptor in rat or mouse vas deferens relative to compound 5 (RX781094)
Type: functional, tissue-based
valueType: Antagonist potency

Examples with answers:
compound: Cc1ccc2c(c1)OC(C1=NCCN1)CO2 (stereo not drawn)
valueType: Antagonist potency
measurement: 0.08

compound: CC1(C)CN=C(C2COc3ccccc3O2)N1 (stereo not drawn)
valueType: Antagonist potency
measurement: 0.0001

compound: N=C(NCCc1ccccc1)C1COc2ccccc2O1 (stereo not drawn)
valueType: Antagonist potency
measurement: 0.0003

compound: CN1CCN=C1C1COc2ccccc2O1 (stereo not drawn)
valueType: Antagonist potency
measurement: 0.0003

a. N=C(C1COc2ccccc2O1)N1CCCCC1 (stereo not drawn)
b. COc1cccc(OC)c1OCC/N=C(\N)C1COc2ccccc2O1 (stereo not drawn)
Among a and b , whose measured Antagonist potency is the smaller figure? Which one? Tell me its label.
a
(a: 0.0001, b: 0.001)

1. CCCC/N=C(\NCCCC)C1COc2ccccc2O1 (stereo not drawn)
2. c1ccc2c(c1)OCC(C1=NCCCN1)O2 (stereo not drawn)
Among 1 and 2 , whose measured Antagonist potency is the smaller figure? Which one? Tell me its label.
1

====

Each entry below carries its recorded Agonist potency.
Target: Adrenergic receptor alpha-1 (Rattus norvegicus) (UniProt P15823+P23944+P43140)
Assay: In vitro postsynaptic agonist potency at alpha-1 adrenergic receptor in rat anococcygeus muscle relative to phenylephrine
Type: functional, tissue-based
Answer with a bare number; do not write a unit.

What does the data say about its Agonist potency? Entry: COc1ccccc1OCC1=NCCN1
10

What does the data say about its Agonist potency? Entry: Cc1cccc2c1OCC(C1=NCCN1)O2 (configuration not stated)
1

What does the data say about its Agonist potency? Entry: Brc1cc2c(cc1Br)OC(C1=NCCN1)CO2 (configuration not stated)
0.02

What does the data say about its Agonist potency? Entry: Cc1cccc2c1OC(C1=NCCN1)CO2 (configuration not stated)
2.1

What does the data say about its Agonist potency? Entry: Clc1ccc2c(c1)OCC(C1=NCCN1)O2 (configuration not stated)
0.005

What does the data say about its Agonist potency? Entry: COc1ccc2c(c1)OCC(C1=NCCN1)O2 (configuration not stated)
0.005

What does the data say about its Agonist potency? Entry: Cc1ccc2c(c1)OC(C1=NCCN1)CO2 (configuration not stated)
0.004

What does the data say about its Agonist potency? Entry: N=C(N)C1COc2ccccc2O1 (configuration not stated)
0.05

What does the data say about its Agonist potency? Entry: Clc1cccc2c1OC(C1=NCCN1)CO2 (configuration not stated)
0.4

What does the data say about its Agonist potency? Entry: Cc1ccc(C)c2c1OCC(C1=NCCN1)O2 (configuration not stated)
2.5

From: ChEMBL document CHEMBL1122229
